Target: T1, IgG-Fc (UniProt P01857-1 108-330 = IgG part, limits assumed)
T1 construct: domain: IgG-Fc; also called biotinylated-IgG-Fc; biotin-IgG-Fc
Test: phage ELISA, M13/gIII display
pEC50: −log10 of the molar value.
Assign class by pEC50: not lower than 7 means satisfied; lower than 7 means not satisfied.

Prompt: Please indicate if the recorded pEC50 for EEPDCSWHLGELVWCTPIEV (M13/gIII phage display; Secondary Optimization) [phage clone EEPDCSWHLGELVWCTPIEV] meets or exceeds 7.
Response: satisfied

Prompt: Assess whether reported pEC50 for KEARCWYWHGELVWCSDPEE (M13/gIII phage display; Focused Libraries) [phage clone KEARCWYWHGELVWCSDPEE] sits at 7 or higher.
Response: not satisfied

Prompt: Determine whether this binder has pEC50 no lower than 7: EVADCSWHLGELVWCTEGEF (M13/gIII phage display; Secondary Optimization) [phage clone EVADCSWHLGELVWCTEGEF]
Response: satisfied

Prompt: Identify whether the reported pEC50 of the following binder is 7 or greater: WVDCAYHLGELVWCSTFEE (M13/gIII phage display; Secondary Optimization; printed with 19 residues) [phage clone WVDCAYHLGELVWCSTFEE]
Response: satisfied

Where do these numbers come from? They come from patent US20040253247A1.
